Values compiled from ChEMBL document CHEMBL1140274.

// reported MIC per item
# System: Klebsiella pneumoniae
# EXPERIMENT DESCRIPTION: In-vitro minimum inhibitory concentration against the growth of Klebsiella pneumoniae
# Type: functional
MEASURED ENDPOINT: MIC (µg/mL)

>>> recorded_number("O=C1c2ccccc2C(=O)c2c1n[nH]c2C(=O)NNc1ccccc1")
12.5
>>> recorded_number("O=C1c2ccccc2C(=O)c2c1n[nH]c2C(=O)NCCO")
25
>>> recorded_number("CNC(=O)c1[nH]nc2c1C(=O)c1ccccc1C2=O")
25

###

# System: Sporothrix schenckii
# EXPERIMENT DESCRIPTION: In-vitro minimum inhibitory concentration against the growth of Sporothrix schenckii
# Assay type: functional
MEASURED ENDPOINT: MIC

>>> result("CCCCNC(=O)c1[nH]nc2c1C(=O)c1ccccc1C2=O")
"> 50 µg/mL"
>>> result("C=CCNC(=O)c1[nH]nc2c1C(=O)c1ccccc1C2=O")
"> 50 µg/mL"
>>> result("O=C1c2ccccc2C(=O)c2c1n[nH]c2C(=O)NNc1ccccc1")
"> 50 µg/mL"
>>> result("OC(Cn1cncn1)(Cn1cncn1)c1ccc(F)cc1F")
"2 µg/mL"
>>> result("NNC(=O)c1[nH]nc2c(O)c3ccccc3c(O)c12")
"> 50 µg/mL"
>>> result("CCOC(=O)c1[nH]nc2c(O)c3ccccc3c(O)c12")
"50 µg/mL"
>>> result("NNC(=O)c1[nH]nc2c1C(=O)c1ccccc1C2=O")
"> 50 µg/mL"
>>> result("O=C(NNc1ccc([N+](=O)[O-])cc1[N+](=O)[O-])c1[nH]nc2c(O)c3ccccc3c(O)c12")
"> 50 µg/mL"
>>> result("CCOC(=O)c1[nH]nc2c1C(=O)c1ccccc1C2=O")
"> 50 µg/mL"
>>> result("CNC(=O)c1[nH]nc2c1C(=O)c1ccccc1C2=O")
"> 50 µg/mL"
>>> result("O=C1c2ccccc2C(=O)c2c1n[nH]c2C(=O)NCCO")
"> 50 µg/mL"

###

# Test system: Staphylococcus aureus
# EXPERIMENT DESCRIPTION: In-vitro minimum inhibitory concentration against the growth of Staphylococcus aureus
# Format: functional
MEASURED ENDPOINT: MIC

>>> result("NC[C@H]1O[C@H](O[C@H]2[C@H](O)[C@@H](O[C@H]3O[C@H](CO)[C@@H](O)[C@H](N)[C@H]3O)[C@H](N)C[C@@H]2N)[C@H](O)[C@@H](O)[C@@H]1O [KANAMYCIN]")
"2 µg/mL"
>>> result("CCOC(=O)c1[nH]nc2c(O)c3ccccc3c(O)c12")
"25 µg/mL"
>>> result("CCOC(=O)c1[nH]nc2c1C(=O)c1ccccc1C2=O")
"25 µg/mL"
>>> result("CNC(=O)c1[nH]nc2c1C(=O)c1ccccc1C2=O")
"> 50 µg/mL"
>>> result("O=C1c2ccccc2C(=O)c2c1n[nH]c2C(=O)NCCO")
"> 50 µg/mL"
>>> result("CCCCNC(=O)c1[nH]nc2c1C(=O)c1ccccc1C2=O")
"> 50 µg/mL"
>>> result("NNC(=O)c1[nH]nc2c(O)c3ccccc3c(O)c12")
"> 50 µg/mL"
>>> result("O=C1c2ccccc2C(=O)c2c1n[nH]c2C(=O)NNc1ccccc1")
"> 50 µg/mL"
>>> result("NNC(=O)c1[nH]nc2c1C(=O)c1ccccc1C2=O")
"> 50 µg/mL"
>>> result("O=C(NNc1ccc([N+](=O)[O-])cc1[N+](=O)[O-])c1[nH]nc2c(O)c3ccccc3c(O)c12")
"> 50 µg/mL"
>>> result("C=CCNC(=O)c1[nH]nc2c1C(=O)c1ccccc1C2=O")
"> 50 µg/mL"
